In what follows, each item is paired with its MIC for Escherichia coli DC-2.

Give MIC only, for `CC[C@H]1OC(=O)[C@H](C)[C@@H](O[C@H]2C[C@@](C)(OC)[C@@H](O)[C@H](C)O2)[C@H](C)[C@@H](O[C@@H]2O[C@H](C)C[C@H](N(C)C)[C@H]2O)[C@](C)(OCC=O)C[C@@H](C)C(=O)[C@H](C)[C@@H](O)[C@]1(C)O` , using Escherichia coli DC-2 data.
> 100 µg/mL

Please report MIC with Escherichia coli DC-2 for item `CC[C@H]1OC(=O)[C@H](C)[C@@H](O[C@H]2C[C@@](C)(OC)[C@@H](O)[C@H](C)O2)[C@H](C)[C@@H](O[C@@H]2O[C@H](C)C[C@H](N(C)C)[C@H]2O)[C@](C)(OCC=NO)C[C@@H](C)C(=O)[C@H](C)[C@@H](O)[C@]1(C)O` .
> 100 µg/mL

* * *

measured-attribute: MIC (µg/mL)
Report as a plain number; the unit µg/mL is understood.

Give MIC for this entry on Escherichia coli DC-2: CC[C@H]1OC(=O)[C@H](C)[C@@H](O[C@H]2C[C@@](C)(OC)[C@@H](O)[C@H](C)O2)[C@H](C)[C@@H](O[C@@H]2O[C@H](C)C[C@H](N(C)C)[C@H]2O)[C@](C)(OCC(O)CO)C[C@@H](C)C(=O)[C@H](C)[C@@H](O)[C@]1(C)O (some centres unmarked)
50

Provide MIC, tested on Escherichia coli DC-2, for CC[C@H]1OC(=O)[C@H](C)[C@@H](O[C@H]2C[C@@](C)(OC)[C@@H](O)[C@H](C)O2)[C@H](C)[C@@H](O[C@@H]2O[C@H](C)C[C@H](N(C)C)[C@H]2O)[C@](C)(OCC(O)Cn2ccnc2)C[C@@H](C)C(=O)[C@H](C)[C@@H](O)[C@]1(C)O (some centres unmarked) .
50

Print Escherichia coli DC-2 MIC for CC[C@H]1OC(=O)[C@H](C)[C@@H](O[C@H]2C[C@@](C)(OC)[C@@H](O)[C@H](C)O2)[C@H](C)[C@@H](O[C@@H]2O[C@H](C)C[C@H](N(C)C)[C@H]2O)[C@](C)(OCC(O)CNCc2ccccc2)C[C@@H](C)C(=O)[C@H](C)[C@@H](O)[C@]1(C)O (some centres unmarked) .
6.2

Determine reported MIC for `C#CCO[C@]1(C)C[C@@H](C)C(=O)[C@H](C)[C@@H](O)[C@](C)(O)[C@@H](CC)OC(=O)[C@H](C)[C@@H](O[C@H]2C[C@@](C)(OC)[C@@H](O)[C@H](C)O2)[C@H](C)[C@H]1O[C@@H]1O[C@H](C)C[C@H](N(C)C)[C@H]1O` ; test system: Escherichia coli DC-2.
100

* * *

Provide the recorded MIC for the entries that follow.
tested on: Pseudomonas aeruginosa DPHD-5263; experiment: In vitro assay of antibacterial activity (agar dilution MIC); assay type: cell-based; settings: BHI agar, 35-37 °C, 20 to 24 hours, in µg/mL (unit assumed)

Let me know recorded MIC for CC[C@H]1OC(=O)[C@H](C)[C@@H](O[C@H]2C[C@@](C)(OC)[C@@H](O)[C@H](C)O2)[C@H](C)[C@@H](O[C@@H]2O[C@H](C)C[C@H](N(C)C)[C@H]2O)[C@](C)(OCC=O)C[C@@H](C)C(=O)[C@H](C)[C@@H](O)[C@]1(C)O [Example 8] , thanks.
> 100

Look up and state reported MIC for CC[C@H]1OC(=O)[C@H](C)[C@@H](O[C@H]2C[C@@](C)(OC)[C@@H](O)[C@H](C)O2)[C@H](C)[C@@H](O[C@@H]2O[C@H](C)C[C@H](N(C)C)[C@H]2O)[C@](C)(OCC(O)Cn2ccnc2)C[C@@H](C)C(=O)[C@H](C)[C@@H](O)[C@]1(C)O (some centres unmarked) [Example 5]
> 100

Please report the measured MIC for CC[C@H]1OC(=O)[C@H](C)[C@@H](O[C@H]2C[C@@](C)(OC)[C@@H](O)[C@H](C)O2)[C@H](C)[C@@H](O[C@@H]2O[C@H](C)C[C@H](N(C)C)[C@H]2O)[C@](C)(OCC(C)=O)C[C@@H](C)C(=O)[C@H](C)[C@@H](O)[C@]1(C)O [Example 9]
> 100

Specify reported MIC for the compound shown: CC[C@H]1OC(=O)[C@H](C)[C@@H](O[C@H]2C[C@@](C)(OC)[C@@H](O)[C@H](C)O2)[C@H](C)[C@@H](O[C@@H]2O[C@H](C)C[C@H](N(C)C)[C@H]2O)[C@](C)(OCC(O)CN=[N+]=[N-])C[C@@H](C)C(=O)[C@H](C)[C@@H](O)[C@]1(C)O (some centres unmarked) [Example 11]
> 100

Name the recorded MIC of the item CC[C@H]1OC(=O)[C@H](C)[C@@H](O[C@H]2C[C@@](C)(OC)[C@@H](O)[C@H](C)O2)[C@H](C)[C@@H](O[C@@H]2O[C@H](C)C[C@H](N(C)C)[C@H]2O)[C@](C)(OCC=NO)C[C@@H](C)C(=O)[C@H](C)[C@@H](O)[C@]1(C)O [Example 12] in your answer.
> 100

Return the recorded MIC value; entry: CC[C@H]1OC(=O)[C@H](C)[C@@H](O[C@H]2C[C@@](C)(OC)[C@@H](O)[C@H](C)O2)[C@H](C)[C@@H](O[C@@H]2O[C@H](C)C[C@H](N(C)C)[C@H]2O)[C@](C)(OCC(O)CO)C[C@@H](C)C(=O)[C@H](C)[C@@H](O)[C@]1(C)O (some centres unmarked) [Example 3]
> 100

# return recorded MIC for entry CC[C@H]1OC(=O)[C@H](C)[C@@H](O[C@H]2C[C@@](C)(OC)[C@@H](O)[C@H](C)O2)[C@H](C)[C@@H](O[C@@H]2O[C@H](C)C[C@H](N(C)C)[C@H]2O)[C@](C)(OCC(O)CN2CCOCC2)C[C@@H](C)C(=O)[C@H](C)[C@@H](O)[C@]1(C)O (some centres unmarked) [Example 6]
> 100

# return recorded MIC for input C#CCO[C@]1(C)C[C@@H](C)C(=O)[C@H](C)[C@@H](O)[C@](C)(O)[C@@H](CC)OC(=O)[C@H](C)[C@@H](O[C@H]2C[C@@](C)(OC)[C@@H](O)[C@H](C)O2)[C@H](C)[C@H]1O[C@@H]1O[C@H](C)C[C@H](N(C)C)[C@H]1O [Example 10]
> 100

Output MIC of CC[C@H]1OC(=O)[C@H](C)[C@@H](O[C@H]2C[C@@](C)(OC)[C@@H](O)[C@H](C)O2)[C@H](C)[C@@H](O[C@@H]2O[C@H](C)C[C@H](N(C)C)[C@H]2O)[C@](C)(OCC(O)CNCc2ccccc2)C[C@@H](C)C(=O)[C@H](C)[C@@H](O)[C@]1(C)O (some centres unmarked) [Example 7]
> 100

Supply reported MIC belonging to this compound: CC[C@H]1OC(=O)[C@H](C)[C@@H](O[C@H]2C[C@@](C)(OC)[C@@H](O)[C@H](C)O2)[C@H](C)[C@@H](O[C@@H]2O[C@H](C)C[C@H](N(C)C)[C@H]2O)[C@](C)(O)C[C@@H](C)C(=O)[C@H](C)[C@@H](O)[C@]1(C)O [Ery. A, Erythromycin A, reference compound]
>100

Supply measured MIC of CCCO[C@]1(C)C[C@@H](C)C(=O)[C@H](C)[C@@H](O)[C@](C)(O)[C@@H](CC)OC(=O)[C@H](C)[C@@H](O[C@H]2C[C@@](C)(OC)[C@@H](O)[C@H](C)O2)[C@H](C)[C@H]1O[C@@H]1O[C@H](C)C[C@H](N(C)C)[C@H]1O [Example 2] in your reply.
>100
